Molecular target: human full-length MKNK1 (Homo sapiens (Human), UniProt Q9BUB5, T344D)
Sequence (Q9BUB5 other isoform, or with tags, fused parts or gaps T344D): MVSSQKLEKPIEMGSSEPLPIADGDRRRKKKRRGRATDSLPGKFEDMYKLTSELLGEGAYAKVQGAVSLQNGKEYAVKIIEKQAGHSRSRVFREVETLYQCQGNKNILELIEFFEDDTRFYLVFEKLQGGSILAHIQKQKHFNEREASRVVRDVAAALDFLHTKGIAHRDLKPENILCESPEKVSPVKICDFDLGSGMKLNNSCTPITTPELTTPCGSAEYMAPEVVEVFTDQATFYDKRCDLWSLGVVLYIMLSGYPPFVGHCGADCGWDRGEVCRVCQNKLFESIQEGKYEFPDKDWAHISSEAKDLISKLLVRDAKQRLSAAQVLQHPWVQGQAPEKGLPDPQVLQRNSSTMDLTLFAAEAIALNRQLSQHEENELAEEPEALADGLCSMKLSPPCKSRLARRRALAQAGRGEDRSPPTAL
Assay: MKNK1 kinase high ATP assay (TR-FRET, 2 mM ATP)
Assay type: biochemical
Conditions: 15 min preincubation, GST-MKNK1 T344D
reported property: IC50 (nM)
Give a bare numeral; the unit nM is implied.

Memo: O[C@H]1C[C@H](CNc2ccc3ncc(-c4cc5ccccc5o4)n3n2)C1 , reported IC50: 21

---

Target: human full-length MKNK1 (Homo sapiens (Human), UniProt Q9BUB5, T344D)
Experiment: MKNK1 kinase high ATP assay (TR-FRET, 2 mM ATP)
Type: biochemical
Conditions: read-out: IC50 MKNK1 (2 mM ATP), 15 min preincubation, GST-MKNK1 T344D
reported property: log10 of IC50 (log10 of the value in µM)
Log scale reminder: IC50 in µM, then log10 taken.

Please review the following examples before continuing.
- line notation: "O[C@H]1C[C@H](Nc2ccc3ncc(-c4cc5cnccc5o4)n3n2)C1"
  log10 of IC50: -1.28
- line notation: "O[C@@H]1CCC[C@H]1Nc1ccc2ncc(-c3cc4ccccc4o3)n2n1"
  log10 of IC50: -1.39
- line notation: "O[C@H]1CC[C@H](Nc2ccc3ncc(-c4cc5ccccc5o4)n3n2)CC1"
  log10 of IC50: -1.51
- line notation: "O[C@@H]1CCC[C@@H]1Nc1ccc2ncc(-c3cc4ccccc4o3)n2n1"
  log10 of IC50: -1.18
- line notation: "O[C@H]1CCCC[C@@H]1Nc1ccc2ncc(-c3cc4ccccc4o3)n2n1"
  log10 of IC50: -1.03
- line notation: "OC[C@H]1C[C@H](Nc2ccc3ncc(-c4cc5ccccc5o4)n3n2)C1"
  log10 of IC50: -1.96

Item: O[C@H]1CCC[C@H]1Nc1ccc2ncc(-c3cc4ccccc4o3)n2n1 | System: human full-length MKNK1 (Homo sapiens (Human), UniProt Q9BUB5, T344D) | log10 of IC50: -1.52

Item: O[C@@H]1CCCC[C@@H]1Nc1ccc2ncc(-c3cc4ccccc4o3)n2n1 | System: human full-length MKNK1 (Homo sapiens (Human), UniProt Q9BUB5, T344D) | log10 of IC50: -1.31

Item: O[C@H]1CCC[C@@H]1Nc1ccc2ncc(-c3cc4ccccc4o3)n2n1 | System: human full-length MKNK1 (Homo sapiens (Human), UniProt Q9BUB5, T344D) | log10 of IC50: -1.28

Item: O[C@@H]1CCCC[C@H]1Nc1ccc2ncc(-c3cc4ccccc4o3)n2n1 | System: human full-length MKNK1 (Homo sapiens (Human), UniProt Q9BUB5, T344D) | log10 of IC50: -0.68

---

Target: human full-lengt MKNK1 (Homo sapiens (Human), UniProt Q9BUB5, T344D)
Sequence (Q9BUB5 other isoform, or with tags, fused parts or gaps T344D): as above
Assay: MKNK1 kinase assay (TR-FRET, 10 μM ATP)
Format: biochemical
Settings: 15 min preincubation, GST-MKNK1 T344D
Description: MKNK1-inhibitory activity of compounds of the present invention was quantified employing the MKNK1 TR-FRET assay as described in the following paragraphs. […] The resulting mixture was incubated for 1 h at 22° C. to allow the formation of complex between the phosphorylated biotinylated peptide and the detection reagents. Subsequently the amount of phosphorylated substrate was evaluated by measurement of the resonance energy transfer from the Eu-chelate to the streptavidine-XL. […]
reported property: pIC50
Keep in mind that pIC50 stands for -log10 of concentration in molar terms.

Memo: O[C@H]1C[C@H](CNc2ccc3ncc(-c4cc5ccccc5o4)n3n2)C1 [Example 2] , reported pIC50: 8.05

Values from patent US9783543B2
